Origin of the recorded values: ChEMBL document CHEMBL2390952

experiment: AUC in Sprague-Dawley rat at 5 mg/kg, po; assay type: ADME, organism-based; parameters: dose 5 mg/kg, route oral; details: plasma
Consider the following molecules; for each one, report its AUC.
Your answer is read as µM·h, so omit the unit and give the number.

So what does the record say about AUC for CS(=O)(=O)N1CCC(n2nnc3cnc4[nH]ccc4c32)CC1 ? 18

So what does the record say about AUC for N#CCCN[C@H]1CC[C@H](n2nnc3cnc4[nH]ccc4c32)CC1 ? 1.4

So what does the record say about AUC for CC1(n2nnc3cnc4[nH]ccc4c32)CCN(S(C)(=O)=O)CC1 ? 1

So what does the record say about AUC for N#CCC(=O)N1CCC[C@@H](n2nnc3cnc4[nH]ccc4c32)C1 ? 1

So what does the record say about AUC for N#CCCN1CCC(n2nnc3cnc4[nH]ccc4c32)CC1 ? 1.8
